# protocol-details: Selectivity index, ratio of CC50 for cytotoxicity against human HEp-2 cells to IC50 for antiviral activity against RSV A2 infected in human HEp-2 cells
readout-type: selectivity ratio

[
  {
    "structure": "CCC(CC)COC(=O)[C@H](C)N[P@](=O)(OC[C@H]1O[C@@](C#N)(c2ccc3c(N)ncnn23)[C@H](O)[C@@H]1O)Oc1ccccc1",
    "result": 395
  }
]
